# Test system: SK-MEL-5 melanoma
# measurement-description: NCI tumour cell line growth inhibition, 48 h; in the data active = GI50 below about 0.43 µM; inactive = the rest
Select the matching outcome among 1 (active), -1 (inactive)

Just curious, what result did O=C1OCC2=C1C(c1cccc(Cl)c1)c1cc3c(cc1N2CCO)OCO3 (stereo not given) get here?
1

What was the test verdict on O=C(N/N=C\c1c(O)ccc2ccccc12)C1CC1 ?
-1

Test call for this compound, please: COc1cccc(/C=N/Nc2ncnc3c2cnn3-c2cccc(OC)c2)c1
-1

For Cc1cc(Nc2cccc(F)c2)nc(NCc2ccccc2)n1 , what call appears in the results of this test?
-1

Write down the call the test reported for this compound. Item: CC1CN1C1=CC(=O)c2c(c(CO)cn2C)C1=O (stereo not given)
1
